Reported % mortality by item:
test system: male mice; assay: Acute toxicity, mortality after a single dose (oral or intravenous); type: in vivo; details: Table I, single oral dose of 500 mg/kg, day 7 after application, 500 mg/kg, 10080 min
observationType: % mortality (%)

INSERT INTO measurements (compound, observationtype, resultnumber) VALUES
  ('CC(CC(=O)c1ccc(-c2ccc(F)cc2F)cc1)C(=O)O (stereo not shown) [Flobufen, reference compound]', '% mortality', 50),
  ('CC(CC(=O)c1ccc(-c2ccc(F)cc2F)cc1)C(=O)O (stereo not shown) [VUFB 17629]', '% mortality', 0),
  ('CC(CC(=O)c1ccc(-c2ccc(F)cc2F)cc1)C(=O)O (stereo not shown) [VUFB 18405]', '% mortality', 20),
  ('CC(CC(=O)c1ccc(-c2ccc(F)cc2F)cc1)C(=O)O (stereo not shown) [VUFB 18404]', '% mortality', 30);

---

test: Acute toxicity, mortality after a single dose (oral or intravenous); assay type: in vivo; details: mouse, physiological saline, iv, 100 mg/kg, Table II; parenteral (intravenous), dose 100, physiological saline, male mice, 3 days
observationType: mortality at 72 h (%)

INSERT INTO results (compound, observationtype, resultunits, resultnumber) VALUES
  ('CC(CC(=O)c1ccc(-c2ccc(F)cc2F)cc1)C(=O)O (stereo not shown) [VUFB 17640]', 'mortality at 72 h', '%', 0);

---

experiment: Acute toxicity, mortality after a single dose (oral or intravenous); format: in vivo; details: mouse, in vivo, po, 500 mg/kg, Table I; single oral dose of 500 mg/kg, male mice, day 7 after application
observationType: mortality at 168 h (%)

INSERT INTO results (compound, observationtype, resultnumber) VALUES
  ('CCOC(=O)CNC(=O)C(C)CC(=O)c1ccc(-c2ccc(F)cc2F)cc1 (stereo not drawn)', 'mortality at 168 h', 0),
  ('CCOC(=O)C(C)CC(=O)c1ccc(-c2ccc(F)cc2F)cc1 (stereo not drawn)', 'mortality at 168 h', 0),
  ('CCCCNC(=O)C(C)CC(=O)c1ccc(-c2ccc(F)cc2F)cc1 (stereo not drawn)', 'mortality at 168 h', 0);
